target: HGFR (Homo sapiens); construct: purchased Upstate 14-526; test: HGFR continuous-coupled spectrophotometric assay; assay type: biochemical; conditions: Table 5; percent c-MET inhibition at 50 nM
Sequence (P08581 974-1390 limits assumed): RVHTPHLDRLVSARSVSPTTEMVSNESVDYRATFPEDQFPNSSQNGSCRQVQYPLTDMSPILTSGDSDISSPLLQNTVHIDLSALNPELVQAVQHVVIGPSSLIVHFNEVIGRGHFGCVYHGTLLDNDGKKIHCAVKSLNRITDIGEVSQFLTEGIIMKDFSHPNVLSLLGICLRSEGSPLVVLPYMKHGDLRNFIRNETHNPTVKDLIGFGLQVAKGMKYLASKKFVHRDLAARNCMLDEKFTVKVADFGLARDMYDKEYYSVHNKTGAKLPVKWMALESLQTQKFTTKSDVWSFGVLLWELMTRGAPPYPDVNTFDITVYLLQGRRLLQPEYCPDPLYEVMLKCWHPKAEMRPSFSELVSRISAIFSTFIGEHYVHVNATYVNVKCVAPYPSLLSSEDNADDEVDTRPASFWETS
Hi there, I'd appreciate the recorded inhibition at 0.05 µM for every entry that follows.
Units required after the number.

Input CC(Oc1cc(-c2ccc(C(=O)N[C@H](CO)c3ccccc3)cc2)cnc1N)c1c(Cl)ccc(F)c1Cl (some centres unmarked) . Output inhibition at 0.05 µM: 69%

Input CC(NC(=O)c1ccc(-c2cnc(N)c(OC(C)c3c(Cl)ccc(F)c3Cl)c2)cc1)c1ccc(F)cc1 (centres unmarked) . Output inhibition at 0.05 µM: 56%

Input CC(Oc1cc(-c2ccc(C(=O)N3CCNC(=O)C3C)cc2)cnc1N)c1c(Cl)ccc(F)c1Cl (centres unmarked) . Output inhibition at 0.05 µM: 86%

Input Cc1noc([C@H]2CC[C@H](CNC(=O)c3ccc(-c4cnc(N)c(OC(C)c5c(Cl)ccc(F)c5Cl)c4)cc3)CC2)n1 (some centres unmarked) . Output inhibition at 0.05 µM: 51%

Input CC(O)CCNC(=O)c1ccc(-c2cnc(N)c(OC(C)c3c(Cl)ccc(F)c3Cl)c2)cc1 (centres unmarked) . Output inhibition at 0.05 µM: 77%

Input CC(Oc1cc(-c2ccc(C(=O)NCC(c3ccc[nH]3)C(F)(F)F)cc2)cnc1N)c1c(Cl)ccc(F)c1Cl (centres unmarked) . Output inhibition at 0.05 µM: 70%

Input COc1ccccc1CC(C)N(C)C(=O)c1ccc(-c2cnc(N)c(OC(C)c3c(Cl)ccc(F)c3Cl)c2)cc1 (centres unmarked) . Output inhibition at 0.05 µM: 55%

Input CC(=O)NC1CCN(C(=O)c2ccc(-c3cnc(N)c(OC(C)c4c(Cl)ccc(F)c4Cl)c3)cc2)C1 (centres unmarked) . Output inhibition at 0.05 µM: 77%

Cited source: patent US8106197B2
